biological target: Growth hormone secretagogue receptor type 1 (Homo sapiens); assay: Intrinsic activity at human ghrelin receptor relative to ghrelin
Sequence (Q92847 whole entry): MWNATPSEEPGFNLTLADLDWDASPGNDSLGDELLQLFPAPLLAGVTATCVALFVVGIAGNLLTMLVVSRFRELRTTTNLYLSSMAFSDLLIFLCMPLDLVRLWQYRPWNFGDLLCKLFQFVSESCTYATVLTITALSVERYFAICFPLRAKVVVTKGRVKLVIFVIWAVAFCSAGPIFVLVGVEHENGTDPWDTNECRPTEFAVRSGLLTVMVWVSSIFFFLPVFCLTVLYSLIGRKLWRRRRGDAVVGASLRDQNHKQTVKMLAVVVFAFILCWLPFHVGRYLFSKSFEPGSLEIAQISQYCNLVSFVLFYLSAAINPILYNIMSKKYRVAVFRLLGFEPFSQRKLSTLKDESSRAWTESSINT
Property: Intrinsic activity

[P] O=S(=O)(Nc1ccc2c(c1)CCN(Cc1cc[nH]n1)CC2)c1ccc(-c2ccccc2)cc1
[Q] CCCCc1ccc(S(=O)(=O)Nc2ccc3c(c2)CCN(Cc2cnc[nH]2)CC3)cc1
[in] Between P and Q , whose recorded Intrinsic activity is greater? To answer, give the label that identifies your chosen option.
[out] P

---

Listed here are molecules together with their documented IC50.
target: Cytochrome P450 2C9 (Homo sapiens, UniProt P11712); assay: Inhibition of human recombinant CYP2C9
Sequence (P11712 whole entry): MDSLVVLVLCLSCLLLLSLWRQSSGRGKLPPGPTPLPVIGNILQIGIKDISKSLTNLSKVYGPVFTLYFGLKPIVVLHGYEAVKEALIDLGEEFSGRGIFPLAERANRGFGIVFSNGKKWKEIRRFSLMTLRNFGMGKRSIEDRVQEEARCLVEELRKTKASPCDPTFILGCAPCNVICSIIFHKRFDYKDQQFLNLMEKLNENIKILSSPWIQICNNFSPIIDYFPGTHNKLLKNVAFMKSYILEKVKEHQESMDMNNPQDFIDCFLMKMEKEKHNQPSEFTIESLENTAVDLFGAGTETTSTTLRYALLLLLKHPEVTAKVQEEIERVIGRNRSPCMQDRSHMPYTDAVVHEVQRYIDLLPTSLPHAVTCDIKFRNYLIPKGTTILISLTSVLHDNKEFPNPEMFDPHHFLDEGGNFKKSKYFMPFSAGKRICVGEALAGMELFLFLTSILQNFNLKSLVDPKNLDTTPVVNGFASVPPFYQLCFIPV
The reply should contain only the number, in nM.

{"Smiles text": "CCCCc1ccc(S(=O)(=O)Nc2ccc3c(c2)CCN(Cc2ccn[nH]2)CC3)cc1", "Measurement unit": "nM", "IC50": 600}
{"Smiles text": "N#Cc1ccc(S(=O)(=O)Nc2ccc3c(c2)CCN(Cc2cc[nH]n2)CC3)cc1", "Measurement unit": "nM", "IC50": 2500}

[in] Tell me the measured IC50 of `O=S(=O)(Nc1ccc2c(c1)CCN(Cc1cc[nH]n1)CC2)c1ccc(-c2ccccn2)s1` , please.
[out] 400
